experimentalSystem: human IL-6 (mature hIL-6) (human, UniProt P05231 30-212)
Sequence (P05231 30-212): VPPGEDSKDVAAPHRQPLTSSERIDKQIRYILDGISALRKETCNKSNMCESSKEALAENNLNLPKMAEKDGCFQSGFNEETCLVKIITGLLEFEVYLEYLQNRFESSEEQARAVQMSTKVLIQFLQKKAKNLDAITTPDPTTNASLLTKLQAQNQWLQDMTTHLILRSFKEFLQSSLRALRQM
procedureSummary: cell-based or functional assay
Measured Reporter gene-assay [pM] determines class: low (below 40 pM), moderate (40 pM to below 60 pM), high (60 pM or more)

binder="Polypeptide_8 (VHH, VHH_2.8 with C-terminal His tag extension E1; also called [VHH_2.8]-E1) VHH: QVQLVESGGGLVQPGGSLRLSCAASGFTFSSYWMYWVRQAPGKGLEWVSGINTGGSTPDYADSVKGRFTISRDNAKNTLYLQMNSLRPEDTAVYYCAADTPRSFRLNHYSPLGQGTQVTVSS" label=low
binder="Polypeptide_2 (VHH, VHH_2.2 with C-terminal His tag extension E1; also called [VHH_2.2]-E1) VHH: EVQLVESGGGLVQPGGSLRLSCAASGFTFSNYWMYWVRQAPGKGLEWVSGINTGGSTPDYADSVKDRFTISRDNAKNTLYLQMNSLRPADTAVYYCAADTPRSFRLNHYAPLGQGTQVTVSS" label=low
binder="Polypeptide_34 (VHH, VHH_1.8 with C-terminal His tag extension E1; also called [VHH_1.8]-E1) VHH: EVQLVESGGGLVQAGGSLRLSCTASGGTFSEYAMAWFRQAPGKEREFVTDIGESGGTWYADSVKGRFTISRDNAKNTVYLQMNSLRPEDTAVYYCAADSYGVGGGAERYYDSWGQGTQVTVSS" label=moderate
binder="Polypeptide_6 (VHH, VHH_2.6 with C-terminal His tag extension E1; also called [VHH_2.6]-E1) VHH: QVQLQESGGGLVQAGGSLRLSCTTSGRTFSDYAMAWFRQAPGKDREFVADIGTNSENTWYAESVKGRFTISRDNTKNTIYLQMNSLKPEDTAVYYCAADSYGVGGGKQEYYDSWGQGAQVTVSS" label=high
binder="Polypeptide_33 (VHH, VHH_1.9 with C-terminal His tag extension E1; also called [VHH_1.9]-E1) VHH: EVQLVESGGGLVQPGGSLRLSCTTSGRTFSSYAVGWFRQAPGKEREFVADIGENADNTWYAHSVKGRFTISRDNAKNTVYLQMNSLKPEDTAVYYCAADSYGVGGGAQGYYDSWGQGTQVTVSS" label=high
binder="Polypeptide_11 (VHH, VHH_2.11 with C-terminal His tag extension E1; also called [VHH_2.11]-E1) VHH: EVQLVESGGGLVQAGGSLRLSCTASGRSFSSYAMGWFRQAPGKEREFVADIGVNPDNTWYADSAKGRFTISRDNAKNTMYLQMNSLKPEDTAVYYCAADSYGVGGGAERYYDSWGQGTQVTVSS" label=high
binder="Polypeptide_16 (VHH, VHH_2.16 with C-terminal His tag extension E1; also called [VHH_2.16]-E1) VHH: EVQLVESGGGLVQPGGSLSLSCTASGRTFSSYAMGWFRQAPGKEREFVADIGENADNRWYAHSVKGRFTISRDNAKNTVYLQMNSLKPEDTAVYYCAADRYGVGGGAQGYYDSWGQGTQVTVSS" label=moderate
binder="Polypeptide_15 (VHH, VHH_2.15 with C-terminal His tag extension E1; also called [VHH_2.15]-E1) VHH: QVQLQESGGGLVQAGGSLRLSCTASGGTFSEYAMAWFRQAPGKEREFVTDIGESGGTWYADSVKGRFTISRDNAKNTVYLQMNSLRPEDTAVYYCAADSYGVGGGAERYYDSWGQGTQVTVSS" label=low
binder="Polypeptide_18 (VHH, VHH_1.16 with C-terminal His tag extension E1; also called [VHH_1.16]-E1) VHH: EVQLVESGGGLVQPGGSLRLSCAASGFTFSNYWMYWVRQAPGKGLEWVSGINTGGSTPDYADSVKGRFAISRDNAKNTLYLQMNSLRPEDTAVYYCAADTPRVFRLDHYSPLGQGTQVTVSS" label=low
binder="Polypeptide_17 (VHH, VHH_2.17 with C-terminal His tag extension E1; also called [VHH_2.17]-E1) VHH: QVQLVESGGGLVQAGGSLRLSCTVSGRTFSTYAMGWFRQAPGKEREFVADINWNSDNIWYADSVKGRFTISRDNAKNVMYLQMNSLKPEDTAVYYCAADSYGVGGGKEEYYDSWGQGTQVTVSS" label=high
binder="Polypeptide_1 (VHH, VHH_2.1 with C-terminal His tag extension E1; also called [VHH_2.1]-E1) VHH: QVQLVESGGDLVQPGGSLRLSCTTSGRTFSSYAMGWFRQAPGKEREFVADIGENADNRWYAHSVKGRFTISRDNAKNTVYLQMNSLKPEDTAVYYCAADRYGVGGGAQGYYDSWGQGTQVTVSS" label=moderate
binder="Polypeptide_9 (VHH, VHH_2.9 with C-terminal His tag extension E1; also called [VHH_2.9]-E1) VHH: QVQLVESGGGLVQPGGSLRLSCAASGFTFSNYWMYWVRQAPGKGLEWVSGIDTRGSTPDYADSVKGRFTISRDNAKSTFYLQMNSLRPEDTAVYYCATDTPRSFRLYHYVPLGQGTQVTVSS" label=low
binder="Polypeptide_12 (VHH, VHH_2.12 with C-terminal His tag extension E1; also called [VHH_2.12]-E1) VHH: QVQLVESGGGLVQAGGSLRLSCTTSGRTFSSYAMAWFRQAPGKDREFVADIGENSDNIWYADSVKGRFTISRDNAKNTILLQMNSLKPEDTAVYYCAADSYGVGGGKPEYYDSWGQGAQVTVSS" label=high
binder="Polypeptide_7 (VHH, VHH_2.7 with C-terminal His tag extension E1; also called [VHH_2.7]-E1) VHH: EVQLVESGGRWVQPGASLRLSCTTSGRTFSSYAMGWFRQAPGKEREFVADIGENADNRWYAHSVKGRFTISRDNAKNTVYLQMNSLKPEDTAVYYCAADRYGVGGGAQGYYDSWGQGTQVTVSS" label=moderate
